Exercise: state measured protein stability index for each of the variants provided.
B1: FBF1 (parent)
chain: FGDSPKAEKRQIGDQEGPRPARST

- Variants of: B1
- experiment summary: protein stability index of a GFP-peptide fusion (GPS, HEK-293T) (PSI 1-6); higher = more stable;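 further: lentivirally expressed fusions sorted by FACS into six bins by GFP to DsRed ratio, PSI derived from sequencing read proportions per bin multiplied by bin number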
- cond: c terminus: a fixed tail appended
Lab note: record the figure alone, no unit after it.

protein stability index in this record for FGDPPKAEKRQIGDQEGPRPARST [S4P] : 5.05

protein stability index in this record for RGDSPKAEKRQIGDQEGPRPARST [F1R] : 5.67

protein stability index in this record for FGDSPKAYKRQIGDQEGPRPARST [E8Y] : 3.39

protein stability index in this record for FGDSPKAEKRQIGDQEGPQPARST [R19Q] : 4.91

protein stability index in this record for CGDSPKAEKRQIGDQEGPRPARST [F1C] : 4.95

protein stability index in this record for FGDSPKAEKRQICDQEGPRPARST [G13C] : 5.04

protein stability index in this record for FGDSPKAENRQIGDQEGPRPARST [K9N] : 5.93

protein stability index in this record for FEDSPKAEKRQIGDQEGPRPARST [G2E] : 5.83

protein stability index in this record for FGDSPKAEKRQIGDQEGPRPARLT [S23L] : 4.98

protein stability index in this record for FGDSPKANKRQIGDQEGPRPARST [E8N] : 4.53

protein stability index in this record for FGDSPKAFKRQIGDQEGPRPARST [E8F] : 3.27

protein stability index in this record for FGDSPKAEKRQIGDQEGNRPARST [P18N] : 4.15

protein stability index in this record for FGDSPKAEKRQIGHQEGPRPARST [D14H] : 5

protein stability index in this record for FGDSPKAEKRQIGDQEGDRPARST [P18D] : 5.48

protein stability index in this record for FGDSPKAEKRQIQDQEGPRPARST [G13Q] : 5.45

protein stability index in this record for FGDSPKAEKRQIGDYEGPRPARST [Q15Y] : 4.53

protein stability index in this record for FGDSPLAEKRQIGDQEGPRPARST [K6L] : 4.84

protein stability index in this record for FGDSPKAEKRQIGDQEGPRPARMT [S23M] : 5.01

protein stability index in this record for FGDSPKAEKRWIGDQEGPRPARST [Q11W] : 3.76

protein stability index in this record for FGDWPKAEKRQIGDQEGPRPARST [S4W] : 2.73

protein stability index in this record for FGDSWKAEKRQIGDQEGPRPARST [P5W] : 1.37

protein stability index in this record for FGDSPKAEKRQIGDQEGPRPARRT [S23R] : 4.78
